Value source: ChEMBL document CHEMBL1201862

- Tested on: KM12
- assay_remarks: NCI tumour cell line growth inhibition, 48 h
Activity calls are given as the source filed them. No stated cut-off is given here; in the data, active = GI50 up to about 1.1 µM and inactive = higher.
Please answer using one outcome listed in yes (1) = active, no (0) = inactive

// known answers, use as guide
[
  {
    "compound": "O=c1c(C(c2cccnc2)c2c(O)oc3cc(O)ccc3c2=O)c(O)oc2cc(O)ccc12",
    "target_under_test": "KM12",
    "category_label": "no (0)"
  },
  {
    "compound": "COc1ccc(C2OC(N)=C(C#N)C3=C2CCCC3C)cc1OC (centres undefined)",
    "target_under_test": "KM12",
    "category_label": "no (0)"
  }
]

Could you check what this test reported for O=C1C(c2ccccc2)=C(c2ccccc2)C(c2ccc(CCCCCCc3ccc(C4=C(c5ccccc5)C(=O)C(c5ccccc5)=C4c4ccccc4)cc3)cc2)=C1c1ccccc1 ? no (0)

Any idea what this test logged for O=c1onc2c3ccccc3ncn12 ? no (0)

Status in this test for COc1ccc2oc(=N)c(C(=O)Nc3ccccc3)cc2c1 ? no (0)

Short answer needed: outcome of this test for CC(=O)OC[C@H]1On2nnnc2[C@H](OC(C)=O)[C@@H](OC(C)=O)[C@@H]1OC(C)=O ? no (0)

Test call, this compound: CC(C)OC(=S)Nc1ccc(Cl)c(/C=N/OC(C)(C)C)c1 no (0)

Identify the outcome logged in this assay for the compound shown: CCc1c2c(nc3ccc(O)cc13)-c1cc3c(c(=O)n1C2)COC(=O)[C@]3(O)CC [7-ETHYL-10-HYDROXYCAMPTOTHECIN] yes (1)

I'd appreciate the recorded outcome for CC[C@@]1(CCC(=O)NCCc2c[nH]c3ccccc23)CCC(=O)N2CCc3c([nH]c4ccccc34)[C@H]21 from this test. no (0)
